system: Staphylococcus aureus; test: Antimicrobial activity against Staphylococcus aureus MTCC 96 assessed as growth inhibition by broth microdilution method; type: functional
Listing: MIC99 of selected compounds
VALUE TYPE: MIC99 (µg/mL)

* O=C1C(=O)N(CCSC(=S)N2CCN(c3ccc(Cl)c(Cl)c3)CC2)c2ccc(Br)cc21 | 250
* CC1(C)S[C@@H]2[C@H](NC(=O)[C@H](N)c3ccccc3)C(=O)N2[C@H]1C(=O)O [AMPICILLIN] | 250
* S=C(SSC(=S)N1CCN(c2ccc(Cl)c(Cl)c2)CC1)N1CCN(c2ccc(Cl)c(Cl)c2)CC1 | 200
* O=C1C(=O)N(CCCSC(=S)N2CCN(c3ccc(Cl)c(Cl)c3)CC2)c2ccc(F)cc21 | 500
* O=C1C(=O)N(CCCSC(=S)N2CCN(c3ccc(Cl)c(Cl)c3)CC2)c2ccc(Cl)cc21 | 500

----------
Listing: MIC99 of selected compounds
tested on: Aspergillus clavatus; experiment: Antimicrobial activity against Aspergillus clavatus MTCC 1323 assessed as growth inhibition by broth microdilution method; type: functional
VALUE TYPE: MIC99 (µg/mL)

* O=C1C(=O)N(CCCSC(=S)N2CCN(c3ccc(Cl)c(Cl)c3)CC2)c2ccc([N+](=O)[O-])cc21 | 200
* S=C(SSC(=S)N1CCN(c2ccc(Cl)c(Cl)c2)CC1)N1CCN(c2ccc(Cl)c(Cl)c2)CC1 | 100
* COC1=CC(=O)C[C@@H](C)[C@]12Oc1c(Cl)c(OC)cc(OC)c1C2=O | 100

----------
system: Bacillus subtilis; assay: Antimicrobial activity against Bacillus subtilis MTCC 441 assessed as growth inhibition by broth microdilution method; format: functional
Listing: MIC99 of selected compounds
VALUE TYPE: MIC99 (µg/mL)

- O=C1C(=O)N(CCCSC(=S)N2CCN(c3ccc(Cl)c(Cl)c3)CC2)c2ccc([N+](=O)[O-])cc21: 250
- S=C(SSC(=S)N1CCN(c2ccc(Cl)c(Cl)c2)CC1)N1CCN(c2ccc(Cl)c(Cl)c2)CC1: 100
- CC1(C)S[C@@H]2[C@H](NC(=O)[C@H](N)c3ccccc3)C(=O)N2[C@H]1C(=O)O: 100
- O=C1C(=O)N(CCCSC(=S)N2CCN(c3ccc(Cl)c(Cl)c3)CC2)c2ccccc21: 100
- O=C1C(=O)N(CCCSC(=S)N2CCN(c3ccc(Cl)c(Cl)c3)CC2)c2ccc(F)cc21: 500
- O=C1C(=O)N(CCSC(=S)N2CCN(c3ccc(Cl)c(Cl)c3)CC2)c2ccc(Br)cc21: 250
- O=C1C(=O)N(CCCSC(=S)N2CCN(c3ccc(Cl)c(Cl)c3)CC2)c2ccc(Cl)cc21: 500

----------
tested on: Aspergillus clavatus; assay: Antimicrobial activity against Aspergillus clavatus MTCC 1323 assessed as growth inhibition by broth microdilution method; format: functional
Listing: MIC99 of selected compounds
VALUE TYPE: MIC99 (µg/mL)

• O=C1C(=O)N(CCSC(=S)N2CCN(c3ccc(Cl)c(Cl)c3)CC2)c2ccc(F)cc21 = 100
• O=C1C(=O)N(CCCSC(=S)N2CCN(c3ccc(Cl)c(Cl)c3)CC2)c2ccc(Br)cc21 = 500
• O=C1C(=O)N(CCCSC(=S)N2CCN(c3ccc(Cl)c(Cl)c3)CC2)c2ccc(F)cc21 = 250
• O=C1C(=O)N(CCSC(=S)N2CCN(c3ccc(Cl)c(Cl)c3)CC2)c2ccc(Cl)cc21 = 500
• O=C1C(=O)N(CCSC(=S)N2CCN(c3ccc(Cl)c(Cl)c3)CC2)c2ccc(Br)cc21 = 500
• O=C1C(=O)N(CCSC(=S)N2CCN(c3ccc(Cl)c(Cl)c3)CC2)c2ccc([N+](=O)[O-])cc21 = 100
• O=C1C(=O)N(CCSC(=S)N2CCN(c3ccc(Cl)c(Cl)c3)CC2)c2ccccc21 = 500

----------
test system: Staphylococcus aureus; test: Antimicrobial activity against Staphylococcus aureus MTCC 96 assessed as growth inhibition by broth microdilution method; assay type: functional
Decide using MIC99 alone. Strictly below 200 µg/mL: 1. Equal to or above 200 µg/mL: -1.

• O=C(O)c1cn(C2CC2)c2cc(N3CCNCC3)c(F)cc2c1=O = 1
• O=C1C(=O)N(CCSC(=S)N2CCN(c3ccc(Cl)c(Cl)c3)CC2)c2ccc([N+](=O)[O-])cc21 = 1
• O=C1C(=O)N(CCCSC(=S)N2CCN(c3ccc(Cl)c(Cl)c3)CC2)c2ccc([N+](=O)[O-])cc21 = -1
• O=C1C(=O)N(CCCSC(=S)N2CCN(c3ccc(Cl)c(Cl)c3)CC2)c2ccccc21 = -1
• CCn1cc(C(=O)O)c(=O)c2cc(F)c(N3CCNCC3)cc21 = 1
• O=C1C(=O)N(CCSC(=S)N2CCN(c3ccc(Cl)c(Cl)c3)CC2)c2ccccc21 = -1
• O=C1C(=O)N(CCSC(=S)N2CCN(c3ccc(Cl)c(Cl)c3)CC2)c2ccc(F)cc21 = 1
• O=C1C(=O)N(CCSC(=S)N2CCN(c3ccc(Cl)c(Cl)c3)CC2)c2ccc(Cl)cc21 = -1

----------
system: Plasmodium falciparum; experiment: Antimalarial activity against chloroquine-sensitive Plasmodium falciparum 3D7 assessed as inhibition of complete maturation into schizonts after 40 hr; type: functional; conditions: 3D7, 40 h
Listing: MIC of selected compounds
VALUE TYPE: MIC (µg/mL)

- O=C1C(=O)N(CCCSC(=S)N2CCN(c3ccc(Cl)c(Cl)c3)CC2)c2ccc(Br)cc21: 0.25
- CCN(CC)CCCC(C)Nc1ccnc2cc(Cl)ccc12 (configuration not stated): 0.125
- O=C1C(=O)N(CCSC(=S)N2CCN(c3ccc(Cl)c(Cl)c3)CC2)c2ccccc21: 0.25
- O=C1C(=O)N(CCSC(=S)N2CCN(c3ccc(Cl)c(Cl)c3)CC2)c2ccc(Br)cc21: 0.052
- O=C1C(=O)N(CCSC(=S)N2CCN(c3ccc(Cl)c(Cl)c3)CC2)c2ccc([N+](=O)[O-])cc21: 0.072
- S=C(SSC(=S)N1CCN(c2ccc(Cl)c(Cl)c2)CC1)N1CCN(c2ccc(Cl)c(Cl)c2)CC1: 0.25
- O=C1C(=O)N(CCCSC(=S)N2CCN(c3ccc(Cl)c(Cl)c3)CC2)c2ccccc21: 0.089
- O=C1C(=O)N(CCSC(=S)N2CCN(c3ccc(Cl)c(Cl)c3)CC2)c2ccc(Cl)cc21: 0.061
- O=C1C(=O)N(CCSC(=S)N2CCN(c3ccc(Cl)c(Cl)c3)CC2)c2ccc(F)cc21: 0.043
- O=C1C(=O)N(CCCSC(=S)N2CCN(c3ccc(Cl)c(Cl)c3)CC2)c2ccc(Cl)cc21: 0.2
- O=C1C(=O)N(CCCSC(=S)N2CCN(c3ccc(Cl)c(Cl)c3)CC2)c2ccc(F)cc21: 0.092
- O=C1C(=O)N(CCCSC(=S)N2CCN(c3ccc(Cl)c(Cl)c3)CC2)c2ccc([N+](=O)[O-])cc21: 0.5
